TESTED ON: T1, SARS-CoV-2 RBD protein E484Q mutant (SARS-CoV-2, UniProt P0DTC2 319-541)
T1 construct: domain: RBD
ASSAY SUMMARY: SPR, Biacore 8K, RBD on CM5 chip, IgG injected, 1:1 model
pKd: −log10 of the molar value.
Measured pKd by item

# BINDER, pKd
data = [
    ("VacW-215 (antibody, V domains shown) VH: EVQLVESGGGLIQPGGSLRLSCAASGFTVSSNYMSWVRQAPGKGLEWVSVIYSGGSTYYADSVKGRFTISRDNSKNTLYLQMNSLRAEDTAVYYCARSTWLRGGFDYWGQGTLVTVSS VL: NFMLTQPHSVSESPGKTVTISCTGSSGSIASNYVQWYQQRPGSAPTTVIYEDNQRPSGVPDRFSGSIDSSSNSASLTISGLKTEDEADYYCQSYDSSNHFYVFGTGTKVTVL", 9.01),
    ("VacW-212 (antibody, V domains shown) VH: EVQLVESGGGLVQPGGSLRLSCAASGFTFSSYWMNWVRQAPGKGLEWVANIKQDESEKYYVDSVKGRFTISRDNAKNSLFLQMNSLRVEDTAVYYCARMEYPYGGIDYWGQGTLVTVSA VL: NFMLTQPHSVSESPGKTVTISCTGSSGSIASNYVQWYQQRPGSAPTTVIYEDNQRPSGVPDRFSGSIDSSSNSASLTISGLKTEDEADYYCQSYDSSNRNWVFGGGTKLTVL", 8.76),
    ("VacW-201 (antibody, V domains shown) VH: EVQLVESGGGLVQPGGSLRLSCAASGFTFSSYWMNWVRQAPGKGLEWVANIKQDGSEKYYVDSVKGRFTISRDNAKNSLYLQMNSLRAEDTAVYYCARMEYPYGGVDYWGQGTLVTVSS VL: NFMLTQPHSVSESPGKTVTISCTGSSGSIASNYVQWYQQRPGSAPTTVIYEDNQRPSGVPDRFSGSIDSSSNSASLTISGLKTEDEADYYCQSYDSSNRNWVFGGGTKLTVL", 8.65),
    ("VacW-209 (antibody, V domains shown) VH: QVQLVESGGGVVQPGRSLRLSCAASGFTFSSIAMHWVRQAPGKGLEWVAVMSFDGSIKYYGDSVKGRFTISRDNSKSTLYLQMNSLRAEDTAVYYCARGVQGYYDRSGYYNLDYNYGMDVWGQGTTVTVSS VL: QSVLTQPPSVSGAPGQRVTISCTGSSSNIGAGYDVHWYQQLPGTAPKLLIYGNSNRPSGVPDRFSGSKSGTSASLAITGLQAEDEADYYCQSYDSSLSGWVFGGGTKLTVL", 10.48),
]
